Test system: RPMI-8226
Test: NCI60 five-dose screen, Leukemia
Type: cell-based
Details: Homo sapiens; RPMI-8226, Leukemia; five-dose screen; read-out: GI50
MEASURED METRIC: GI50 (nM)
Expressed in nM, but write only the number.

COMPOUND	GI50 (nM)
CC[C@]12C=CCN3CC[C@@]4(c5ccc(OC)cc5N(C)[C@H]4[C@@](O)(C(=O)OC)[C@@H]1OC(=O)CCC(=O)N1CCN(Cc4ccc(C(F)(F)F)cc4)CC1)[C@@H]32	6920
CC[C@]12C=CCN3CC[C@@]4(c5ccc(OC)cc5N(C)[C@H]4[C@@](O)(C(=O)OC)[C@@H]1OC(=O)CCCN1CCN(c4ccc(C(F)(F)F)cc4)CC1)[C@@H]32	2040
CCC12C=CCN3CCC4(c5cc(NC(=O)CN6CCN(C(c7ccc(F)cc7)c7ccc(F)cc7)CC6)c(OC)cc5N(C)C4C(O)(C(=O)OC)C1OC(C)=O)C32 (centres unmarked)	1910
CCC12C=CCN3CCC4(c5cc(NC(=O)CN6CCN(c7ccc(C(F)(F)F)cc7)CC6)c(OC)cc5N(C)C4C(O)(C(=O)OC)C1OC(C)=O)C32 (centres unmarked)	3090
CC[C@]12C=CCN3CC[C@@]4(c5ccc(OC)cc5N(C)[C@H]4[C@@](O)(C(=O)OC)[C@@H]1OC(=O)CCCN1CCN(Cc4ccc(F)cc4)CC1)[C@@H]32	4170
CC[C@]12C=CCN3CC[C@@]4(c5ccc(OC)cc5N(C)[C@H]4[C@@](O)(C(=O)OC)[C@@H]1OC(=O)CCCN1CCN(Cc4ccc(C(F)(F)F)cc4)CC1)[C@@H]32	2000
CC[C@]12C=CCN3CC[C@@]4(c5ccc(OC)cc5N(C)[C@H]4[C@@](O)(C(=O)OC)[C@@H]1OC(=O)CCC(=O)N1CCN(C(c4ccc(F)cc4)c4ccc(F)cc4)CC1)[C@@H]32	1420

Now let's try a different one.
May I ask what GI50 has been recorded for "CC[C@]12C=CCN3CC[C@@]4(c5ccc(OC)cc5N(C)[C@H]4[C@@](O)(C(=O)OC)[C@@H]1OC(=O)CCC(=O)N1CCN(c4ccc(C(F)(F)F)cc4)CC1)[C@@H]32" ?
2570

Data origin, for the record: paper PMC11277489
